For each entry below, report its growth inhibition value.
Assay: NCI Yeast Anticancer Drug Screen. Data for the mgt1 strain (AID 153)
Conditions: S. cerevisiae mgt1 mutant growth inhibition; at 1.2 µM; stronger effect = higher value
The panel holds about 79,000 compounds, 15% with a hit somewhere; the sample as a whole holds those more often.
Give bare numbers, in %.

Solved cases (5 shown):
MOLECULE	growth inhibition [%]
CCC/C(Cl)=N\OC(=O)Nc1cccc(C(F)(F)F)c1	7
C=CCC1=C(C)C(OC(=O)/C=C/c2ccccc2)CC1=O (configuration not stated)	-6
Cc1ccc(S(=O)(=O)Oc2cc(Cl)c(Cl)cc2Cl)cc1	0
CCCCCCCCCCCCCCC(C(=O)[O-])[n+]1ccccc1 (configuration not stated)	2
O=C(NC(Nc1ccc(F)c(Cl)c1)(C(F)(F)F)C(F)(F)F)C(C(F)(F)F)C(F)(F)F	26

For every listed record, write down its growth inhibition.
1. COc1ccc(N=C2C(=O)Nc3ccc(Br)cc32)cc1
2. [N-]=[N+]=NC1=C(c2ccccn2)C(=O)c2cccc3cccc1c23
3. O=C(c1ccc(Cl)cc1Cl)C(Cl)Cl
4. COc1cc(C2SCC(=O)N2c2nnc(C(F)(F)F)s2)cc(OC)c1OC (configuration not stated)
5. Cc1ccc(S(=O)(=O)NCCSS(=O)(=O)c2ccc(C)cc2)cc1

8
-3
-21
-1
-13

For every listed record, write down its growth inhibition.
1. O=C1c2ccccc2C(=O)c2cc(CBr)ccc21
2. CSC(=S)N/N=C(\C)c1cccc(C)n1
3. COC(=O)C1=C(C(=O)OC)C2(C)C=CC1O2 (configuration not stated)
4. O=C(OCC=C1CCCC1)c1cc([N+](=O)[O-])cc([N+](=O)[O-])c1
5. CCN(CC)CCNc1ccc([N+](=O)[O-])c2nc3ccc(OC)cc3c(N)c12
6. COC1C=COC2(C)Oc3c(C)c(O)c4c(c3C2=O)/C(=N/C2CCC(O)OC2C)C=C(NC(=O)/C(C)=C\C(=O)C2CC2C(O)C(C)C(O)C(C)C(OC(C)=O)C1C)C4=O (configuration not stated)

[0, -7, -4, -1, -20, 0]

For every listed record, write down its growth inhibition.
1. OC1CCCc2c1cc1ccc3cccc4ccc2c1c34 (configuration not stated)
2. CC(=O)SCCC[Si](C)(C)CCCSC(C)=O
3. COc1ccc(/C=C2\SC(=S)N(/C=C/c3nc4ccccc4[nH]c3=O)C2=O)cc1OC

1. -4
2. -4
3. -1

For every listed record, write down its growth inhibition.
1. Oc1ccc(NCn2c(=S)sc3ccccc32)cc1
2. Nc1ccccc1CC(O)C(=O)O (configuration not stated)
3. S=c1[nH]nc(Nc2ccc(Cl)cc2)s1
4. N#CSc1ccc(S(N)(=O)=O)cc1
5. Cc1ccc(S/N=C\c2ccccc2O)cc1
6. COc1ccc2c(c1)C(=O)c1ccccc1C2

[14, 4, -1, -81, 2, -4]

* * *

Assay: NCI Yeast Anticancer Drug Screen. Data for the rad14 strain (AID 159);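 also: 0% = growth of vehicle-treated control cultures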
Details: S. cerevisiae rad14 strain growth inhibition; at 3.7 µM
Compounds without any hit were thinned out: in the full panel of roughly 79,000, 15% have a hit. Calls of active or inactive are those of the source. Cut-off read from the data, not from the text of the source: active = growth inhibition above about 70%; inactive = the rest.
The reply should name one outcome from active, inactive

Answered cases to consult:
COMPOUND	CLASS_LABEL
COc1cc(C2SCC(=O)N2c2nnc(C(F)(F)F)s2)cc(OC)c1OC (stereo unspecified)	inactive
O=[N+]([O-])c1ccc([N+]2=NC(c3ccccc3)=NN(c3ccccc3)C2)cc1	inactive
CN(Cc1cnc2nc(N)nc(N)c2n1)c1ccc(C(=O)N[C@@H](CCC(=O)O)C(=O)O)cc1	inactive
CCc1ccc(NS(=O)(=O)c2ccccc2)c([N+](=O)[O-])c1	inactive
O=C1Nc2ccc(Cl)c(I)c2C1=O	inactive
O=C(O)C1OC1(c1cccc(Cl)c1)c1ccccc1Cl (stereo unspecified)	inactive

With those in mind, consider the next compound.
Status in this test for COC(=O)CCNc1c2ccccc2nc2cccc([N+](=O)[O-])c12 ?
active
